- study.target: Human immunodeficiency virus type 1 reverse transcriptase (Human immunodeficiency virus 1)
- assay.explanation: Inhibition of wild type HIV-1 Reverse transcriptase assessed as reduction of biotin-dUTP incorporation into […] using ABTS as substrate preincubated with compound for 1 hr followed by substrate addition in presence of biotin-labeled dNTPs by ELISA analysis
readout: pIC50
Scale note: pIC50 = -log10(concentration in M).

Solved cases below.
COC(=O)c1ccc(-c2cc(Cl)cc(Oc3c(C(F)(F)F)ccn(Cc4n[nH]c(=O)n4C)c3=O)c2)cc1: 7.52
Cn1c(Cn2ccc(C(F)(F)F)c(Oc3cc(Cl)cc(-c4ccc(Cl)cc4)c3)c2=O)n[nH]c1=O: 7.70
Cc1ccc(-c2cc(Cl)cc(Oc3c(C(F)(F)F)ccn(Cc4n[nH]c(=O)n4C)c3=O)c2)cc1: 7.52
Cn1c(Cn2ccc(C(F)(F)F)c(Oc3cc(Cl)cc(-c4cncnc4)c3)c2=O)n[nH]c1=O: 7.40

Recorded pIC50 of Cn1c(Cn2ccc(C(F)(F)F)c(Oc3cc(Cl)cc(Br)c3)c2=O)n[nH]c1=O , please. 7.52

Recorded pIC50 of Cn1c(Cn2ccc(C(F)(F)F)c(Oc3cc(Cl)cc(-c4ccncc4)c3)c2=O)n[nH]c1=O , please. 7.10

Recorded pIC50 of Cn1c(Cn2ccc(C(F)(F)F)c(Oc3cc(Cl)cc(-c4ccc(Br)cc4)c3)c2=O)n[nH]c1=O , please. 7.40

Recorded pIC50 of Cn1c(Cn2ccc(C(F)(F)F)c(Oc3cc(Cl)cc(-c4cc5ccccc5s4)c3)c2=O)n[nH]c1=O , please. 7.40

----------
# maps each entry to its selectivity ratio
- assay.explanation: Selectivity index, ratio of CC50 for cytotoxicity against human MT4 cells assessed as reduction in cell viability by MTT assay to EC50 for antiviral activity against wild type HIV-1 IIIB infected in human MT4 cells assessed as protection against virus-induced cytopathic effect
- Format: toxicity, cell-based
- applied.conditions: read-out: Ratio CC50/EC50
Returns: the value as a bare number; no unit string appended.

Cn1c(Cn2ccc(C(F)(F)F)c(Oc3cc(Cl)cc(-c4ccc(N)nc4)c3)c2=O)n[nH]c1=O: 154
Cn1c(Cn2ccc(C(F)(F)F)c(Oc3cc(Cl)cc(-c4ccco4)c3)c2=O)n[nH]c1=O: 311

Next item in the queue.
Recorded selectivity ratio of Cn1c(Cn2ccc(C(F)(F)F)c(Oc3cc(Cl)cc(-c4ccccc4)c3)c2=O)n[nH]c1=O , please. 505

----------
- assay.explanation: Cmax in Sprague-Dawley rat at 10 mg/kg, po measured upto 24 hrs by LC-MS/MS analysis
- Type: ADME, organism-based
- applied.conditions: in vivo
readout: Cmax (ng/mL)
Enter your answer as a number in ng/mL; do not include the unit.

Recorded Cmax of Cn1c(Cn2ccc(C(F)(F)F)c(Oc3cc(Cl)cc(-c4ccc(Br)cc4)c3)c2=O)n[nH]c1=O , please. 3340

----------
- System: Human immunodeficiency virus 1
- assay.explanation: Antiviral activity against NNRTI-resistant HIV-1 harboring K103N mutant infected in human MT4 cells assessed as protection against virus-induced cytopathic effect by MTT assay
- Format: functional, organism-based
- applied.conditions: Human immunodeficiency virus 1, MT4
readout: EC50
Mention the unit after the number when you answer.

Cn1c(Cn2ccc(C(F)(F)F)c(Oc3cc(Cl)cc(-c4ccc(Cl)cc4)c3)c2=O)n[nH]c1=O: 19 nM
Cn1c(Cn2ccc(C(F)(F)F)c(Oc3cc(Cl)cc(-c4cc5ccccc5s4)c3)c2=O)n[nH]c1=O: 18 nM
Cn1c(Cn2ccc(C(F)(F)F)c(Oc3cc(Cl)cc(C#N)c3)c2=O)n[nH]c1=O: 14 nM
Cc1ccc(-c2cc(Cl)cc(Oc3c(C(F)(F)F)ccn(Cc4n[nH]c(=O)n4C)c3=O)c2)cc1: 17 nM
Cn1c(Cn2ccc(C(F)(F)F)c(Oc3cc(Cl)cc(-c4ccncc4)c3)c2=O)n[nH]c1=O: 22 nM
Cn1c(Cn2ccc(C(F)(F)F)c(Oc3cc(Cl)cc(-c4cncnc4)c3)c2=O)n[nH]c1=O: 42 nM
Cn1c(Cn2ccc(C(F)(F)F)c(Oc3cc(Cl)cc(-c4ccc(Br)cc4)c3)c2=O)n[nH]c1=O: 13 nM
COC(=O)c1ccc(-c2cc(Cl)cc(Oc3c(C(F)(F)F)ccn(Cc4n[nH]c(=O)n4C)c3=O)c2)cc1: 19 nM

Next item in the queue.
Recorded EC50 of Cn1c(Cn2ccc(C(F)(F)F)c(Oc3cc(Cl)cc(Br)c3)c2=O)n[nH]c1=O , please. 22 nM
